Biological target: human AT1R (Homo sapiens (Human))
Sequence (P30556 whole entry): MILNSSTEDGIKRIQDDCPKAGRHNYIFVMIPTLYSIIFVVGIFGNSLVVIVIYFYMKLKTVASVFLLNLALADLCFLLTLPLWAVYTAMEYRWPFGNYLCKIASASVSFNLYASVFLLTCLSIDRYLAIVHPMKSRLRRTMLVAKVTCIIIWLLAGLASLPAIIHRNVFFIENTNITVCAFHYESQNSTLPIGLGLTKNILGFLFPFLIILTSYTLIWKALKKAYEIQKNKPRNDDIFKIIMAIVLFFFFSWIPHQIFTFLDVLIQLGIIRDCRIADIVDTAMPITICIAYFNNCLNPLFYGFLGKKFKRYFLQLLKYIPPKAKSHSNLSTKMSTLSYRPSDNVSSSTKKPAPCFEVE
pIC50: −log10 of the molar value.
pIC50 values by entry

>  <COMPOUND>
FC(F)COc1ccc(-c2nn[nH]n2)c(N2CCN(Cc3nc4ccccc4s3)CC2)c1 [Compound A-55]

>  <SYSTEM_UNDER_TEST>
human AT1R (Homo sapiens (Human))

>  <pIC50>
4.40

$$$$
>  <COMPOUND>
c1ccc(N2CCC(Cc3nc4ccccc4s3)CC2)c(-c2nn[nH]n2)c1 [Compound A-06]

>  <SYSTEM_UNDER_TEST>
human AT1R (Homo sapiens (Human))

>  <pIC50>
4.60

$$$$
>  <COMPOUND>
CC(C)=Cc1ccc(-c2nn[nH]n2)c(N2CCN(Cc3nc4ccccc4n3C)CC2)c1 [Compound A-21]

>  <SYSTEM_UNDER_TEST>
human AT1R (Homo sapiens (Human))

>  <pIC50>
4.38

$$$$
>  <COMPOUND>
CC(C)Cc1ccc(-c2nn[nH]n2)c(N2CCN(Cc3cc4ccccc4n(C)c3=O)CC2)c1 [Compound A-77]

>  <SYSTEM_UNDER_TEST>
human AT1R (Homo sapiens (Human))

>  <pIC50>
4.87

$$$$
>  <COMPOUND>
CC(C)Cc1ccc(-c2nn[nH]n2)c(N2CCN(Cc3nc4ccccc4n3C)CC2)c1 [Compound A-20]

>  <SYSTEM_UNDER_TEST>
human AT1R (Homo sapiens (Human))

>  <pIC50>
4.30

$$$$
>  <COMPOUND>
CCc1nc2ccc(N(Cc3ccccc3)C(=O)c3cccs3)cc2c(=O)n1CC1CCN(c2ccccc2-c2nn[nH]n2)CC1 [Compound A-246]

>  <SYSTEM_UNDER_TEST>
human AT1R (Homo sapiens (Human))

>  <pIC50>
4.57

$$$$

###

Biological target: human AT2R fused to Cb23 (Homo sapiens, UniProt P50052)
Sequence (P50052 whole entry, looked up, the tested form may be a part): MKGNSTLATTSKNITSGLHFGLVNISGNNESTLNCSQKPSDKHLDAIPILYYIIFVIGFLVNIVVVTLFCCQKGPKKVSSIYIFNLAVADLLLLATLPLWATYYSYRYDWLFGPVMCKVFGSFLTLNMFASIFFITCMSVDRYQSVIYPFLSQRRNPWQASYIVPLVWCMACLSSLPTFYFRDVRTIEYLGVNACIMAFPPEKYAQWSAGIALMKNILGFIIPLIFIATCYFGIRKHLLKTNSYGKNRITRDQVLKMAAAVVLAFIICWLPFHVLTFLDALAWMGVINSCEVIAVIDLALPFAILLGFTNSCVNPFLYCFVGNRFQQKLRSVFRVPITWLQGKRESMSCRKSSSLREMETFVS
Assay: Radioligand binding assay, displacement of 125I-[Sar1, Ile8]-Angiotensin II, hAT2R Cb23
Conditions: displacement of 125I-[Sar1, Ile8]-Angiotensin II, human AT2R fused to Cb23, HEK-293 cell membrane preparations; read-out: Binding affinity on hAT2R_Cb23 IC50
Protocol: All synthesized ligands were evaluated in a radioligand assay by displacing ^125I-[Sar1, Ile8]-Angiotensin II (Perkin Elmer, NEX248050UC) from human AT2R fused to Cb23 or human/rodent/cynomolgus/minipig/dog WT AT2R in HEK-293 cells membrane preparations, using C21 (Vicore Pharma) and Angiotensin II (endogenous ligand) as reference. The affinity was determined using an eight-point dose-response curve, each point performed in duplicates. […]
pIC50: −log10 of the molar value.
READOUT_KIND: pIC50

>  <COMPOUND>
CC(C)Cc1cc(F)c(-c2nn[nH]n2)c(N2CCN(Cc3ncccc3Cl)CC2)c1

>  <RECORDED_RESULT>
6.41

$$$$
>  <COMPOUND>
CC(C)Cc1cc(F)c(-c2nn[nH]n2)c(N2CCN(Cc3ccc(C#N)cn3)CC2)c1

>  <RECORDED_RESULT>
5.43

$$$$
>  <COMPOUND>
CCc1cc(-c2nn[nH]n2)c(N2CCN(Cc3cccnn3)CC2)cc1OC(C)C

>  <RECORDED_RESULT>
4.36

$$$$
>  <COMPOUND>
c1ccc2sc(CN3CCN(c4cc(NCC5CC5)cnc4-c4nn[nH]n4)CC3)nc2c1

>  <RECORDED_RESULT>
5.08

$$$$
>  <COMPOUND>
CC(C)Cc1ccc(-c2nn[nH]n2)c(N2CCN(Cc3nccn3C)CC2)c1

>  <RECORDED_RESULT>
5.75

$$$$
>  <COMPOUND>
CC(C)Cc1cc(F)c(-c2nn[nH]n2)c(N2CCN(Cc3cccnn3)C(C(C)C)C2)c1 (stereo not shown)

>  <RECORDED_RESULT>
6.02

$$$$
>  <COMPOUND>
CC(C)Oc1cc(C2CC2)c(-c2nn[nH]n2)c(N2CCN(Cc3cccnn3)CC2)c1

>  <RECORDED_RESULT>
5.84

$$$$
>  <COMPOUND>
CC(C)Cc1cnc(-c2nn[nH]n2)c(N2CCN(Cc3cccnn3)[C@@H](C)C2)c1

>  <RECORDED_RESULT>
6.23

$$$$
>  <COMPOUND>
CC(C)Cc1cc(F)c(-c2nn[nH]n2)c(N2CC3CC2CN3Cc2cccnn2)c1 (stereo not shown)

>  <RECORDED_RESULT>
5.58

$$$$
>  <COMPOUND>
CC(C)Oc1cc(N2CCN(Cc3nc4ccccc4s3)CC2)c(-c2nn[nH]n2)cc1C1CC1

>  <RECORDED_RESULT>
5.56

$$$$
>  <COMPOUND>
CC(C)Cc1cc(F)c(-c2nn[nH]n2)c(N2CC3CCC(C2)N3Cc2cccnn2)c1

>  <RECORDED_RESULT>
5.87

$$$$
>  <COMPOUND>
Cc1ncc(CN2CCN(c3cc(CC(C)C)ccc3-c3nn[nH]n3)CC2)n1C

>  <RECORDED_RESULT>
4.73

$$$$
>  <COMPOUND>
CC(C)Cc1cc(F)c(-c2nn[nH]n2)c(N2CCCN(Cc3cccnn3)CC2)c1

>  <RECORDED_RESULT>
6.43

$$$$
>  <COMPOUND>
Cc1cccc2nc(CN3CCN(c4cc(CC(C)C)ccc4-c4nn[nH]n4)CC3)cc(=O)n12

>  <RECORDED_RESULT>
5.37

$$$$
>  <COMPOUND>
COc1cc(F)c(-c2nn[nH]n2)c(N2CCN(Cc3nc4ccccc4s3)CC2)c1

>  <RECORDED_RESULT>
5.05

$$$$
>  <COMPOUND>
Cc1cc(C2CC2)cc(N2CCN(Cc3nc4ccccc4s3)CC2)c1-c1nn[nH]n1

>  <RECORDED_RESULT>
7.13

$$$$

These data points were gathered from patent US20240368133A1.
